Reported TI: TC50/IC50 values for the following compounds.
Test system: HIV-1ROJO
Assay: Antiviral activity in infected PBMCs (reverse transcriptase in supernatant)
Format: cell-based

Here are 5 compounds together with their reported answers.
Cc1cn([C@H]2C[C@H](N=[N+]=[N-])[C@@H](CO)O2)c(=O)[nH]c1=O [AZT, reference compound] | >100
CC(C)c1nn(-c2c(Cl)cc(Cl)cc2Cl)c2nc(Cc3ccc(CNC(CO)CO)n3C)[nH]c(=O)c12.Cl | >1
CC(C)c1nn(-c2c(Cl)cc(Cl)cc2Cl)c2nc(Cc3ccc(OCC(C)(C)O)cc3)[nH]c(=O)c12 | >10
CC(C)c1nn(-c2c(Cl)cc(Cl)cc2Cl)c2nc(Cc3ccc(OCCO)cc3)[nH]c(=O)c12 | >10
CC(C)c1nn(-c2c(Cl)cccc2Cl)c2nc(Cc3ccc(CN4CCCC4)c(O)c3)[nH]c(=O)c12.Cl | >10

# context switch: different compound, same TI: TC50/IC50
Q: Request the reported TI: TC50/IC50 associated with CC(C)c1nn(-c2c(Cl)cccc2Cl)c2nc(Cc3ccc(OCCN4CCOCC4)c(O)c3)[nH]c(=O)c12
A: >10
